The origin of these recorded values is ChEMBL document CHEMBL1128696.

biological target: Human immunodeficiency virus type 1 integrase (Human immunodeficiency virus 1, UniProt Q7ZJM1); experiment: In vitro inhibitory activity against HIV-1 integrase.
Sequence (Q7ZJM1 whole entry): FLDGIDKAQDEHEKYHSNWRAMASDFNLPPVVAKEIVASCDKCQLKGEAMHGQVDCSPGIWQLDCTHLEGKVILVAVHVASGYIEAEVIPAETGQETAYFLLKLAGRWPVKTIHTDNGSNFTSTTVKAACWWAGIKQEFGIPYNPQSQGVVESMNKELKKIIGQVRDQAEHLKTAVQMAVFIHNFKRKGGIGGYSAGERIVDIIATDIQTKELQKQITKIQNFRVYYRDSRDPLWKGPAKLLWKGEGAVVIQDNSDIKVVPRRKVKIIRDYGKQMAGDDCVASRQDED
Field: pIC50. Provide a value for each of the compounds that follow.
Numbers only, as −log10 of the molar value.

INSERT INTO measurements (compound, quantitative_result) VALUES
  ('O=C(/C=C/c1ccc(O)c(O)c1)OCCc1ccc2ccccc2c1', 4.36),
  ('O=C(/C=C/c1cc(O)c(O)cc1O)OCCc1ccccc1', 4.26),
  ('O=C(/C=C/c1ccc(O)c(O)c1)OCCc1ccccc1', 5.15),
  ('N=c1oc2c(O)c(O)ccc2cc1C(N)=O', 4.03),
  ('O=C(OCCc1ccccc1)c1ccc2c(O)c(O)ccc2c1', 4.74),
  ('O=C(NCCc1ccccc1)c1cc2ccc(O)c(O)c2cn1', 4.40);

Give me pIC50 for each of these compounds, listed below.
1. O=C(/C=C/c1ccc(O)c(O)c1)OCCc1cccc2ccccc12
2. O=C(NCc1ccccc1)c1cc2ccc(O)c(O)c2cn1
3. O=C(/C=C/c1cc(O)c(O)c(O)c1)OCCc1ccccc1
4. COc1ccc(/C=C/C(=O)OCCc2ccccc2)cc1O
5. O=C(CCc1ccc(O)c(O)c1)NCCc1cc(O)c(O)c(O)c1

Ans:
[4.82, 4.12, 5.70, 4.22, 5.40]

* * *

Can you tell me IC50 for the items I'm about to list?
target: Human immunodeficiency virus type 1 integrase (Human immunodeficiency virus 1, UniProt Q7ZJM1)

INSERT INTO measurements (molecule, result) VALUES
  ('O=C(Cc1ccccc1)NCCc1ccc(O)c(O)c1', '> 100 µM'),
  ('O=C(/C=C/c1ccc(F)c(F)c1)OCCc1ccccc1', '> 100 µM');

Provide IC50 for all items below, preserving their order.
1. O=C(CCc1ccc(O)c(O)c1)NCCc1ccccc1
2. COc1cc(/C=C/C(=O)OCCc2ccccc2)ccc1O
3. O=C(NCc1ccccc1)c1cc2cc(O)c(O)cc2cn1
4. O=C(/C=C/c1cc(O)ccc1O)OCCc1ccccc1

Ans:
1: > 100 µM; 2: > 100 µM; 3: > 100 µM; 4: > 100 µM

* * *

target: UniProt:Q7ZJM1; test: In vitro inhibitory activity against HIV-1 integrase.
pIC50: −log10 of the molar value.
Mark 1 (yes) for reported pIC50 of 5 or greater; mark 0 (no) for anything smaller.

Answered cases to consult:
INSERT INTO results (compound, qualitative_label) VALUES
  ('COc1ccc(/C=C/C(=O)OCCc2ccccc2)cc1OC', '0 (no)'),
  ('O=C(/C=C/c1ccc(O)c(O)c1O)OCCc1ccccc1', '1 (yes)'),
  ('N=c1oc2cc(O)c(O)cc2cc1C(N)=O', '0 (no)');

Shift focus to the following entry.
Q: Threshold query (pIC50 >= 5) on COC(=O)c1cc2cc(O)c(O)cc2cn1
Ans: 0 (no)

* * *

biological target: Human immunodeficiency virus type 1 integrase (Human immunodeficiency virus 1, UniProt Q7ZJM1)
Binarize IC50 at 10 µM; below is TRUE, at or above is FALSE.

Worked cases, answers included:
INSERT INTO assay_data (molecule, qualitative_label) VALUES
  ('O=C(/C=C/c1ccc(O)c(O)c1)OCCCc1ccccc1', 'TRUE'),
  ('COC(=O)c1ccc2c(O)c(O)ccc2c1', 'TRUE'),
  ('O=C(CCc1ccc(O)c(O)c1)NCCc1ccc(O)c(O)c1', 'TRUE');

Q: Criterion: IC50 strictly below 10 µM. Is it met by N#C/C(=C\c1ccc(O)c(O)c1)C(N)=O ?
Ans: FALSE

Q: Consider O=C(CCc1ccccc1)NCCc1ccc(O)c(O)c1 . Does its IC50 lie strictly below 10 µM?
Ans: FALSE

Q: State whether 10 µM exceeds IC50 recorded for COC(=O)/C=C/c1ccc(O)c(O)c1 [METHYLCAFFEATE] .
Ans: FALSE

Q: Please indicate whether the reported IC50 of O=C(/C=C/c1ccc(O)c(O)c1)OCc1ccccc1 [BENZYL CAFFEATE] is strictly below 10 µM.
Ans: TRUE

Q: IC50 under 10 µM? Item: O=C(OCCc1ccccc1)c1ccc2cc(O)c(O)cc2c1
Ans: FALSE

Q: Could you please tell me whether IC50 recorded for CCOC(=O)/C=C/c1ccc(O)c(O)c1 [ETHYL CAFFEATE] is less than 10 µM?
Ans: FALSE

Q: IC50 strictly < 10 µM for this molecule? O=C(CCc1ccc(O)c(O)c1)OCCc1ccccc1
Ans: FALSE

Q: # check: IC50 < 10 µM for COC(=O)c1cc2ccc(O)c(O)c2cn1
Ans: FALSE
